target: Adenosine receptor A3 (Homo sapiens)
Sequence (P0DMS8 whole entry): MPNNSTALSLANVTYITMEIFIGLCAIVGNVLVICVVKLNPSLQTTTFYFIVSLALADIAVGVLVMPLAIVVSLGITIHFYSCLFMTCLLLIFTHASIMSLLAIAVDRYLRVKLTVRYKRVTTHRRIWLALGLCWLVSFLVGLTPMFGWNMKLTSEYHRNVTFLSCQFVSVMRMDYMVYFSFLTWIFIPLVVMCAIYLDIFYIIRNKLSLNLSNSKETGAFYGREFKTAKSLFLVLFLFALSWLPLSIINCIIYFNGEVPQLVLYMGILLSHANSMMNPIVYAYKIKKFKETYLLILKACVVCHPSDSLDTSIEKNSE
Mark each entry fulfilled if its Ki sits below 700 nM, and not fulfilled for all others.

MOL | TARGET_OR_SYSTEM | ASSIGNED_CLASS
O=C(Nc1nc(-c2ccccc2)c(-c2ccncc2)s1)c1ccco1 | Adenosine receptor A3 (Homo sapiens) | fulfilled

Query: Does the reported Ki of Nc1nc(-c2sc(NC(=O)c3ccccc3)nc2-c2ccccc2)nc2sc3c(c12)CCCC3 stay below 700 nM?
Reply: not fulfilled

Query: Could you do the same for COc1ccc(C(=O)Nc2nc(-c3ccccc3)c(-c3nc(N)nc(N(C)C)n3)s2)cc1 , please?
Reply: not fulfilled

Query: Could you do the same for COc1ccc(C(=O)Nc2nc(-c3ccccc3)c(-c3nc(N)c4c5c(sc4n3)CCCC5)s2)cc1 , please?
Reply: not fulfilled

Query: Could you do the same for O=C(Nc1nc(-c2ccccc2)c(-c2ccccn2)s1)c1ccco1 , please?
Reply: not fulfilled

Query: Could you do the same for CN(C)c1nc(N)nc(-c2sc(NC(=O)c3ccccc3)nc2-c2ccccc2)n1 , please?
Reply: fulfilled

Query: Could you do the same for Cc1sc2nc(-c3sc(NC(=O)c4ccco4)nc3-c3ccccc3)[nH]c(=O)c2c1C , please?
Reply: not fulfilled

Query: Could you do the same for Cc1ccc(C(=O)Nc2nc(-c3ccccc3)c(-c3nc(N)nc(N(C)C)n3)s2)cc1 , please?
Reply: not fulfilled

Query: Could you do the same for Cc1sc2nc(-c3sc(NC(=O)c4ccco4)nc3-c3ccccc3)nc(N)c2c1C , please?
Reply: not fulfilled

* * *

biological target: Adenosine receptor A2a (Homo sapiens, UniProt P29274)
Sequence (P29274 whole entry): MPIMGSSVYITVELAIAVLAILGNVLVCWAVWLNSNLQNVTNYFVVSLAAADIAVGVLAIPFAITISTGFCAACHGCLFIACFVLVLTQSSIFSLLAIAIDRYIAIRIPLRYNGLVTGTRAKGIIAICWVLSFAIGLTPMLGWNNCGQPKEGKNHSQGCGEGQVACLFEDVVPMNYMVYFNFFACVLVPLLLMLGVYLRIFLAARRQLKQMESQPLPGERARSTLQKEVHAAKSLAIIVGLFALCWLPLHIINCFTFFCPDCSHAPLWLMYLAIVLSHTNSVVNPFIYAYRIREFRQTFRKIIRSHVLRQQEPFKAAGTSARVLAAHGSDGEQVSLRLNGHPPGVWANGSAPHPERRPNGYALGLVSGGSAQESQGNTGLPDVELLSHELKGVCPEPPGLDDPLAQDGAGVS
READOUT_NAME: Ki (nM)
Report the value in nM with no unit label.

Examples with their reported Ki follow.
MOL | READOUT_NAME | MEASUREMENT
Nc1nc(-c2sc(NC(=O)c3ccco3)nc2-c2ccccc2)nc2sc3c(c12)CCCC3 | Ki | 14400
O=C(Nc1nc(-c2ccccc2)c(C(=O)c2cccnc2)s1)c1ccco1 | Ki | 552
CN(C)c1nc(N)nc(-c2sc(NC(=O)c3ccco3)nc2-c2ccccc2)n1 | Ki | 179
COc1ccc(C(=O)Nc2nc(-c3ccccc3)c(-c3nc(N)nc(N(C)C)n3)s2)cc1 | Ki | 2010

Query: Please give the measured Ki for this compound: Cc1ccc(C(=O)Nc2nc(-c3ccccc3)c(-c3nc(N)nc(N(C)C)n3)s2)cc1
Reply: 562

* * *

Form field: pKi (one value per entry).
molecular target: Adenosine receptor A2a (Homo sapiens, UniProt P29274)
Keep it numeric: pKi is minus log10 of the concentration in mol/L.

MOL | MEASUREMENT
O=C(Nc1nc(-c2ccccc2)c(-c2ccncc2)s1)c1ccco1 | 8.18

Now turn to the next compound.
Query: Please give the measured pKi for this compound: O=C(Nc1nc(-c2ccccc2)c(-c2ccccn2)s1)c1ccco1
Reply: 6.71

* * *

Biological target: Adenosine receptor A2b (Homo sapiens, UniProt P29275)
Sequence (P29275 whole entry): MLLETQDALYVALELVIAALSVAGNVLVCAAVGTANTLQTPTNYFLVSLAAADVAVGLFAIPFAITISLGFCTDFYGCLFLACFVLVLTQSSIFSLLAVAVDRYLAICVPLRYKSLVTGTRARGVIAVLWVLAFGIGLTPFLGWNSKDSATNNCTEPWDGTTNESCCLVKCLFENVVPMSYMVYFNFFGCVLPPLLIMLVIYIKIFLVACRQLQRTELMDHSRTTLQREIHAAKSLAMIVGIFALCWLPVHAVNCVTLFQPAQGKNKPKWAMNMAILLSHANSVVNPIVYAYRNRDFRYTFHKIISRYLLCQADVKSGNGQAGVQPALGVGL
Assay: Antagonist activity at human adenosine A2B receptor expressed in CHO cells assessed as inhibition of NECA-stimulated adenylyl cyclase activity
pKi: −log10 of the molar value.
READOUT_NAME: pKi

MOL | READOUT_NAME | MEASUREMENT
O=C(Nc1nc(-c2ccccc2)c(C(=O)c2ccccn2)s1)c1ccco1 | pKi | 5.04
Cc1ccc(C(=O)Nc2nc(-c3ccccc3)c(-c3nc(N)c4c5c(sc4n3)CCCC5)s2)cc1 | pKi | < 5.00
Cc1ccc(C(=O)Nc2nc(-c3ccccc3)c(-c3nc(N)nc(N(C)C)n3)s2)cc1 | pKi | < 4.52

Query: Please give the measured pKi for this compound: COc1ccc(C(=O)Nc2nc(-c3ccccc3)c(C(=O)c3cccnc3)s2)cc1
Reply: < 5.00

Query: Could you do the same for CN(C)c1nc(N)nc(-c2sc(NC(=O)c3ccccc3)nc2-c2ccccc2)n1 , please?
Reply: < 5.00

Query: Could you do the same for COc1ccc(C(=O)Nc2nc(-c3ccccc3)c(C(=O)c3ccccn3)s2)cc1 , please?
Reply: < 5.00

Query: Could you do the same for O=C(Nc1nc(-c2ccccc2)c(-c2ccncc2)s1)c1ccco1 , please?
Reply: 8.56

Query: Could you do the same for COc1ccc(C(=O)Nc2nc(-c3ccccc3)c(-c3nc(N)c4c(C)c(C)sc4n3)s2)cc1 , please?
Reply: < 5.00

Query: Could you do the same for Nc1nc(-c2sc(NC(=O)c3ccccc3)nc2-c2ccccc2)nc2sc3c(c12)CCCC3 , please?
Reply: < 5.00

Query: Could you do the same for Nc1nc(-c2sc(NC(=O)c3ccco3)nc2-c2ccccc2)nc2sc3c(c12)CCCC3 , please?
Reply: < 5.00

Query: Could you do the same for O=C(Nc1nc(-c2ccccc2)c(-c2nc3ccccc3c(=O)[nH]2)s1)c1ccco1 , please?
Reply: < 5.00

Reference source for all entries: ChEMBL document CHEMBL2390947
